Provenance of the data: patent US11780854B2

This section lists IC50 readings for PHD2 (Homo sapiens (Human), UniProt Q9GZT9).

// below: answered compounds
1) N#Cc1ccc(CNC(=O)c2ncc3nc(N4C[C@H]5C[C@@H]4CN5C4CC4)ccc3c2O)c(Cl)c1 [compound 69]: 5 to 20 nM
2) CC(C)(C)OC(=O)N1CCOC2(C1)CN(c1ccc3c(O)c(C(=O)NCc4ccc(C#N)nc4)ncc3n1)C2 [compound 118]: < 5 nM
3) N#Cc1ccc(CNC(=O)c2ncc3nc(N4C[C@@H]5C[C@H]4CO5)ccc3c2O)cn1 [compound 44]: < 5 nM

Kindly consider the entry below.
Entry N#Cc1ccc(CNC(=O)c2ncc3nc(N4CCC5(COC5)C4)ccc3c2O)c(Cl)c1 [compound 8] , PHD2 (Homo sapiens (Human), UniProt Q9GZT9) data, IC50 value: 5 to 20 nM

----------
Test system: Hep3B cell
Assay: EPO Elisa Assay in Hep3B cells
Type: cell-based
Settings: Homo sapiens, 24 h at 37° C.
EC50 values, listed per item

1) CC(C)(C)OC(=O)N1CCOC2(C1)CN(c1ccc3c(O)c(C(=O)NCc4ccc(C#N)nc4)ncc3n1)C2 [compound 118]: 2.5 to 5 µM

Form: molecule = CC(C)(C)OC(=O)N1C[C@@H]2C[C@H]1CN2c1ccc2c(O)c(C(=O)NCc3ccc(C#N)nc3)ncc2n1 [compound 116] ; EC50 = 10 to 100 µM

Form: molecule = N#Cc1ccc(CNC(=O)c2ncc3nc(N4C[C@@H]5C[C@H]4CO5)ccc3c2O)cn1 [compound 44] ; EC50 = 2.5 to 5 µM

Form: molecule = N#Cc1ccc(CNC(=O)c2ncc3nc(N4C[C@@H]5C[C@H]4CN5C4CC4)ccc3c2O)cn1 [compound 80] ; EC50 = < 2.5 µM

----------
System: Hep3B cell
Test: EPO Elisa Assay in Hep3B cells
Assay type: cell-based
Details: Homo sapiens, 24 h at 37° C.
EC50 values, listed per item

// below: answered molecules
1. N#Cc1ccc(CNC(=O)c2ncc3nc(N4C[C@H]5C[C@@H]4CN5C4CC4)ccc3c2O)c(Cl)c1 [compound 69]: 2.5 to 5 µM
2. CC(C)(C)OC(=O)N1C[C@@H]2CN(c3ccc4c(O)c(C(=O)NCc5ccc(C#N)nc5)ncc4n3)C[C@@H]2C1 [compound 117]: 2.5 to 5 µM
3. N#Cc1ccc(CNC(=O)c2ncc3nc(N4CCC5(COC5)C4)ccc3c2O)c(Cl)c1 [compound 8]: 2.5 to 5 µM
4. N#Cc1ccc(CNC(=O)c2ncc3nc(N4C[C@H]5C[C@@H]4CO5)ccc3c2O)cn1 [compound 43]: 2.5 to 5 µM
5. CC(C)(C)OC(=O)N[C@@H]1CN(c2ccc3c(O)c(C(=O)NCc4ccc(C#N)nc4)ncc3n2)CC12CC2 [compound 145]: 10 to 100 µM
6. N#Cc1ccc(CNC(=O)c2ncc3nc(N4CCC5(COC5)C4)ccc3c2O)cn1 [compound 25]: < 2.5 µM
7. N#Cc1ccc(CNC(=O)c2ncc3nc(N4CC5CC4CO5)ccc3c2O)cn1 (centres unmarked) [compound 30]: 2.5 to 5 µM
8. CN1CCC2(CCN(c3ccc4c(O)c(C(=O)NCc5ccc(C#N)nc5)ncc4n3)CC2)C1=O [compound 67]: 5 to 7.5 µM

Entry CN1C[C@@H]2C[C@H]1CN2c1ccc2c(O)c(C(=O)NCc3ccc(C#N)cc3Cl)ncc2n1 [compound 58] , Hep3B cell data, EC50 value: 10 to 100 µM

Entry N#Cc1ccc(CNC(=O)c2ncc3nc(N4C[C@@H]5C[C@H]4CN5C4CC4)ccc3c2O)c(Cl)c1 [compound 68] , Hep3B cell data, EC50 value: < 2.5 µM

Entry CC(C)(C)OC(=O)N1CC2(C1)CN(c1ccc3c(O)c(C(=O)NCc4ccc(C#N)nc4)ncc3n1)C2 [compound 91] , Hep3B cell data, EC50 value: < 2.5 µM
